- target.system: T1, human glucose-dependent insulinotropic peptide (gastric inhibitory polypeptide) receptor (human, UniProt P48546 22-466)
- T1 sequence (looked up): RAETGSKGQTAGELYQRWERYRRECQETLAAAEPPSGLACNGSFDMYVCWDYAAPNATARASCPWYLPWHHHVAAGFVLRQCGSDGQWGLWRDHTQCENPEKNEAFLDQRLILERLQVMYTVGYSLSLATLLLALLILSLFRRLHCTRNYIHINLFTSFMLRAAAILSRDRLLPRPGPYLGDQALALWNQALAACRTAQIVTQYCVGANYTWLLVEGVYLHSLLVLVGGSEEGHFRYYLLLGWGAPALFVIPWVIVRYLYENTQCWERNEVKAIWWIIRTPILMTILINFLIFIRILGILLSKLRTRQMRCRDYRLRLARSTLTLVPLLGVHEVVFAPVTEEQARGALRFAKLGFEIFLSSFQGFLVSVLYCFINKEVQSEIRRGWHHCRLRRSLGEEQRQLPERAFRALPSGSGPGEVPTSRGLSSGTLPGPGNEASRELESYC
- assay.remarks: cell-based or functional assay
result.type: cAMP EC50 (assay 1) (nM)

binder | number
HSQGTFTSDYSKKLDSERARDFVAWLVAGG (X13 = K(gE-palm) (Lys with palmitoyl on the epsilon nitrogen through a gamma glutamic acid linker); C-terminal amide) [G730] | 45
HSQGTFTSDKSSYLDSRRARDFVAWLEAGG (X10 = K(gE-palm); C-terminal amide) [G796] | 14
HGQGTFTSDYSKYLDSKRAQDFVQWLVAGG (X17 = K(gE-palm); C-terminal amide) [G380] | 130
HSQGTFTSDKSRYLDSRSARDFVAWLEAGG (X10 = K(gE-palm); C-terminal amide) [G849] | 17
